From: patent US7094869B2

Test system: growth hormone secretion
measurement notes: GHRP induced growth hormone secretion, intravenous administration (Rat IV)
Type: in vivo
condition set: Table II; iv tail vein injection, anesthetized weanling female rats, serum GH 10 min after injection
Non-standard residues stand in square brackets, D forms with d. Residues, ends and D or L forms follow the SMILES beside them. d2Nal = N[C@H](Cc1ccc2ccccc2c1)C(=O)O; Ava = NCCCCC(=O)O
measurement name: Rat IV ED50 (µg)

>  <compound>
C[C@H](NC(=O)[C@@H](Cc1ccc2ccccc2c1)NC(=O)CCCCN)C(=O)N[C@@H](Cc1c[nH]c2ccccc12)C(=O)N[C@H](Cc1ccccc1)C(=O)N[C@@H](CCCCN)C(N)=O [(Ava) b A W f K amide, reference compound] (H-[Ava][d2Nal]AW[dF]K-NH2)

>  <quantitative result>
1.5

$$$$
>  <compound>
C[C@H](NC(=O)[C@@H](Cc1c[nH]c2ccccc12)NC(=O)[C@@H](N)Cc1c[nH]cn1)C(=O)N[C@@H](Cc1c[nH]c2ccccc12)C(=O)N[C@H](Cc1ccccc1)C(=O)N[C@@H](CCCCN)C(N)=O [GHRP 6, His-D Trp-Ala-Trp-D Phe-Lys-NH2, reference compound] (H-H[dW]AW[dF]K-NH2)

>  <quantitative result>
1.0

$$$$
>  <compound>
C[C@@H](O)CNC(C)(C)CC(=O)N[C@@H]1CCc2ccccc2N(Cc2ccc(-c3ccccc3-c3nnn[nH]3)cc2)C1=O [L-692,585, reference compound]

>  <quantitative result>
10

$$$$
>  <compound>
CC(C)(N)CC(=O)N[C@@H]1CCc2ccccc2N(Cc2ccc(-c3ccccc3-c3nnn[nH]3)cc2)C1=O [L-692,429, reference compound]

>  <quantitative result>
100

$$$$
>  <compound>
C[C@H](NC(=O)[C@@H](Cc1ccc2ccccc2c1)NC(=O)[C@@H](C)N)C(=O)N[C@@H](Cc1c[nH]c2ccccc12)C(=O)N[C@H](Cc1ccccc1)C(=O)N[C@@H](CCCCN)C(N)=O [GHRP 2, D Ala-D βNal-Ala-Trp-D Phe-Lys-NH2, reference compound] (H-[dA][d2Nal]AW[dF]K-NH2)

>  <quantitative result>
0.35

$$$$
